# Tested on: 695427-040-R-J1-PDC complex spheroid viability;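 note: viability read after seven days of drug exposure; 100% = DMSO vehicle control viability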
# TEST PROTOCOL: Anticancer human tumor 695427-040-R-J1-PDC patient-derived colon adenocarcinoma cell line growth inhibition [RAS]; active = viability on the fitted dose curve at most 10% of control; inactive = the rest
# CONDITION CONTEXT: second compound 10 µM; first compound 0.316 µM
Parameter call: string, one of yes (1) for active, no (0) for inactive

Task item: Please share the test call associated with Cc1nc(N2CCC3(CC2)COC(C)C3N)c(CO)nc1Sc1ccnc(N)c1Cl (stereo not given) + C#Cc1c(F)ccc2cc(O)cc(-c3ncc4c(N5CC6CCC(C5)N6)nc(OCC56CCCN5CC(F)C6)nc4c3F)c12 .
Reply: no (0)

Task item: Please share the test call associated with CCN1CCN(Cc2ccc(Nc3ncc(F)c(-c4cc(F)c5nc(C)n(C(C)C)c5c4)n3)nc2)CC1 + C#Cc1c(F)ccc2cc(O)cc(-c3ncc4c(N5CC6CCC(C5)N6)nc(OCC56CCCN5CC(F)C6)nc4c3F)c12 .
Reply: no (0)

Task item: Please share the test call associated with CCC(CC)c1cc(NC2CCC(N)C2)n2nccc2n1 (stereo not given) + C#Cc1c(F)ccc2cc(O)cc(-c3ncc4c(N5CC6CCC(C5)N6)nc(OCC56CCCN5CC(F)C6)nc4c3F)c12 .
Reply: no (0)

Task item: Please share the test call associated with CC1(O)CCCC1n1c(=O)c(C(F)F)cc2cnc(NC3CCN(S(C)(=O)=O)CC3)nc21 (stereo not given) + C#Cc1c(F)ccc2cc(O)cc(-c3ncc4c(N5CC6CCC(C5)N6)nc(OCC56CCCN5CC(F)C6)nc4c3F)c12 .
Reply: no (0)

Task item: Please share the test call associated with CC(C)NCC(C(=O)N1CCN(c2ncnc3c2C(C)CC3O)CC1)c1ccc(Cl)cc1 (stereo not given) + C#Cc1c(F)ccc2cc(O)cc(-c3ncc4c(N5CC6CCC(C5)N6)nc(OCC56CCCN5CC(F)C6)nc4c3F)c12 .
Reply: no (0)

Task item: Please share the test call associated with CC(=O)OC12COC1CC(O)C1(C)C(=O)C(O)C3=C(C)C(OC(=O)C(O)C(NC(=O)OC(C)(C)C)c4ccccc4)CC(O)(C(OC(=O)c4ccccc4)C21)C3(C)C (stereo not given) + C#Cc1c(F)ccc2cc(O)cc(-c3ncc4c(N5CC6CCC(C5)N6)nc(OCC56CCCN5CC(F)C6)nc4c3F)c12 .
Reply: no (0)

Task item: Please share the test call associated with C[C@@H](NC(=O)c1ncnc(N)c1Cl)c1ncc(C(=O)Nc2cc(C(F)(F)F)c(Cl)cn2)s1 + C#Cc1c(F)ccc2cc(O)cc(-c3ncc4c(N5CC6CCC(C5)N6)nc(OCC56CCCN5CC(F)C6)nc4c3F)c12 .
Reply: no (0)

Task item: Please share the test call associated with C=CC(=O)N1CCN(c2nc(OCC3CCCN3C)nc3c(F)c(-c4nc(N)cc(C)c4C(F)(F)F)c(Cl)cc23)C(C)C1 (stereo not given) + C#Cc1c(F)ccc2cc(O)cc(-c3ncc4c(N5CC6CCC(C5)N6)nc(OCC56CCCN5CC(F)C6)nc4c3F)c12 .
Reply: no (0)

Task item: Please share the test call associated with O=C(c1ccc(F)c(F)c1Nc1ccc(I)cc1F)N1CC(O)([C@@H]2CCCCN2)C1 + C#Cc1c(F)ccc2cc(O)cc(-c3ncc4c(N5CC6CCC(C5)N6)nc(OCC56CCCN5CC(F)C6)nc4c3F)c12 .
Reply: yes (1)

Task item: Please share the test call associated with C=CC(=O)Nc1cc(Nc2nccc(-c3cn(C)c4ccccc34)n2)c(OC)cc1N(C)CCN(C)C + C#Cc1c(F)ccc2cc(O)cc(-c3ncc4c(N5CC6CCC(C5)N6)nc(OCC56CCCN5CC(F)C6)nc4c3F)c12 .
Reply: no (0)

From: PubChem BioAssay AID2060888
